Would you kindly list LDH for each of these compounds?
Species: Rattus norvegicus
Assay: Open TG-GATES - Regimen: Single
Type: toxicity, organism-based, Sprague-Dawley
Design: regimen Single, gender Male, age 6 weeks
Details: in vivo, po, 1000 mg/kg, 3 h, tissue Plasma, route gavage, dose level High
Your answer should be a plain number; it is taken to be in IU/L.

Read off the recorded LDH for `Cc1nnc2n1-c1ccc(Cl)cc1C(c1ccccc1Cl)=NC2`
97.8

Read off the recorded LDH for `CNC(=C[N+](=O)[O-])NCCSCc1ccc(CN(C)C)o1`
148

Read off the recorded LDH for `CN/C(=N/CCSCc1nc[nH]c1C)NC#N`
175

Read off the recorded LDH for `O=C(OC[C@H]1O[C@@H](OC(=O)c2cc(O)c(O)c(OC(=O)c3cc(O)c(O)c(O)c3)c2)[C@H](OC(=O)c2cc(O)c(O)c(OC(=O)c3cc(O)c(O)c(O)c3)c2)[C@@H](OC(=O)c2cc(O)c(O)c(OC(=O)c3cc(O)c(O)c(O)c3)c2)[C@@H]1OC(=O)c1cc(O)c(O)c(OC(=O)c2cc(O)c(O)c(O)c2)c1)c1cc(O)c(O)c(OC(=O)c2cc(O)c(O)c(O)c2)c1`
101.8

Read off the recorded LDH for `COC(=O)C1=C(C)NC(C)=C(C(=O)OC)C1c1ccccc1[N+](=O)[O-]`
99.4

====

Species on record: Rattus norvegicus
Assay: Open TG-GATES - Regimen: Single
Type: toxicity, organism-based, Sprague-Dawley
Design: regimen Single, gender Male, age 6 weeks
Settings: in vivo, po, 0 mg/kg, 24 h, tissue Plasma, route gavage, dose level Control
measuredQuantity: gamma-GTP (IU/L)
Your answer should be a plain number; it is taken to be in IU/L.

Read off the recorded gamma-GTP for Cc1nnc2n1-c1ccc(Cl)cc1C(c1ccccc1Cl)=NC2 [TRIAZOLAM]
1

Read off the recorded gamma-GTP for CC(C)NNC(=O)c1ccncc1 [IPRONIAZID]
1.8

Read off the recorded gamma-GTP for Nc1c2c(nc3ccccc13)CCCC2 [TACRINE]
1

Read off the recorded gamma-GTP for NC1=NC(=O)C(c2ccccc2)O1 (centres undefined) [PEMOLINE]
1

Read off the recorded gamma-GTP for Brc1ccccc1 [BROMOBENZENE]
1.4

Read off the recorded gamma-GTP for CS(=O)(=O)O.Cc1ccc(NC(=O)c2ccc(CN3CCN(C)CC3)cc2)cc1Nc1nccc(-c2cccnc2)n1 [IMATINIB MESYLATE]
1

Read off the recorded gamma-GTP for CN1C(=O)CCS(=O)(=O)C1c1ccc(Cl)cc1 (centres undefined) [CHLORMEZANONE]
1

Read off the recorded gamma-GTP for CNC(=C[N+](=O)[O-])NCCSCc1ccc(CN(C)C)o1 [RANITIDINE]
1

Read off the recorded gamma-GTP for CN/C(=N/CCSCc1nc[nH]c1C)NC#N [CIMETIDINE]
1.8

Read off the recorded gamma-GTP for CN(C)CCC(c1ccc(Cl)cc1)c1ccccn1 (centres undefined) [CHLORPHENIRAMINE]
1.4

Read off the recorded gamma-GTP for COC(=O)C1=C(C)NC(C)=C(C(=O)OC)C1c1ccccc1[N+](=O)[O-] [NIFEDIPINE]
1

Read off the recorded gamma-GTP for O=C(OC[C@H]1O[C@@H](OC(=O)c2cc(O)c(O)c(OC(=O)c3cc(O)c(O)c(O)c3)c2)[C@H](OC(=O)c2cc(O)c(O)c(OC(=O)c3cc(O)c(O)c(O)c3)c2)[C@@H](OC(=O)c2cc(O)c(O)c(OC(=O)c3cc(O)c(O)c(O)c3)c2)[C@@H]1OC(=O)c1cc(O)c(O)c(OC(=O)c2cc(O)c(O)c(O)c2)c1)c1cc(O)c(O)c(OC(=O)c2cc(O)c(O)c(O)c2)c1 [TANNIC ACID]
1.4

Read off the recorded gamma-GTP for CCOc1ccc(NC(C)=O)cc1 [PHENACETIN]
1

Read off the recorded gamma-GTP for CCCc1cc(=O)[nH]c(=S)[nH]1 [PROPYLTHIOURACIL]
2.4

====

Organism: Rattus norvegicus
Assay: Open TG-GATES - Regimen: Single
Format: toxicity, organism-based, Sprague-Dawley
Parameters: regimen Single, gender Male, age 6 weeks
Settings: in vivo, po, 0 mg/kg, 9 h, tissue Blood, route gavage, dose level Control
measuredQuantity: MCV (fL)
Your answer should be a plain number; it is taken to be in fL.

Read off the recorded MCV for `CC(C)NNC(=O)c1ccncc1`
62.6

Read off the recorded MCV for `CCOc1ccc(NC(C)=O)cc1`
64.9

Read off the recorded MCV for `CN/C(=N/CCSCc1nc[nH]c1C)NC#N`
62

Read off the recorded MCV for `COC(=O)C1=C(C)NC(C)=C(C(=O)OC)C1c1ccccc1[N+](=O)[O-]`
65

Read off the recorded MCV for `O=C(OC[C@H]1O[C@@H](OC(=O)c2cc(O)c(O)c(OC(=O)c3cc(O)c(O)c(O)c3)c2)[C@H](OC(=O)c2cc(O)c(O)c(OC(=O)c3cc(O)c(O)c(O)c3)c2)[C@@H](OC(=O)c2cc(O)c(O)c(OC(=O)c3cc(O)c(O)c(O)c3)c2)[C@@H]1OC(=O)c1cc(O)c(O)c(OC(=O)c2cc(O)c(O)c(O)c2)c1)c1cc(O)c(O)c(OC(=O)c2cc(O)c(O)c(O)c2)c1`
65.9

Read off the recorded MCV for `Cc1nnc2n1-c1ccc(Cl)cc1C(c1ccccc1Cl)=NC2`
64

Read off the recorded MCV for `Nc1c2c(nc3ccccc13)CCCC2`
61.5

Read off the recorded MCV for CN(C)CCC(c1ccc(Cl)cc1)c1ccccn1 (centres undefined)
67.1

Read off the recorded MCV for `CCCc1cc(=O)[nH]c(=S)[nH]1`
66.2

Read off the recorded MCV for CS(=O)(=O)O.Cc1ccc(NC(=O)c2ccc(CN3CCN(C)CC3)cc2)cc1Nc1nccc(-c2cccnc2)n1 [IMATINIB MESYLATE]
62.3

Read off the recorded MCV for CN1C(=O)CCS(=O)(=O)C1c1ccc(Cl)cc1 (centres undefined)
63.1

Read off the recorded MCV for `Brc1ccccc1`
64.4

Read off the recorded MCV for NC1=NC(=O)C(c2ccccc2)O1 (centres undefined)
62.8

Read off the recorded MCV for `CNC(=C[N+](=O)[O-])NCCSCc1ccc(CN(C)C)o1`
62.4

====

Species: Rattus norvegicus
Assay: Open TG-GATES - Regimen: Single
Format: toxicity, organism-based, Sprague-Dawley
Design: regimen Single, gender Male, age 6 weeks
Details: in vivo, po, 1000 mg/kg, 3 h, tissue Plasma, route gavage, dose level High
measuredQuantity: GLC
Please give the number followed by its unit.

Read off the recorded GLC for `CNC(=C[N+](=O)[O-])NCCSCc1ccc(CN(C)C)o1`
181.2 mg/dL

Read off the recorded GLC for `O=C(OC[C@H]1O[C@@H](OC(=O)c2cc(O)c(O)c(OC(=O)c3cc(O)c(O)c(O)c3)c2)[C@H](OC(=O)c2cc(O)c(O)c(OC(=O)c3cc(O)c(O)c(O)c3)c2)[C@@H](OC(=O)c2cc(O)c(O)c(OC(=O)c3cc(O)c(O)c(O)c3)c2)[C@@H]1OC(=O)c1cc(O)c(O)c(OC(=O)c2cc(O)c(O)c(O)c2)c1)c1cc(O)c(O)c(OC(=O)c2cc(O)c(O)c(O)c2)c1`
191.4 mg/dL

====

Species: Rattus norvegicus
Assay: Open TG-GATES - Regimen: Single
Type: toxicity, organism-based, Sprague-Dawley
Set-up: regimen Single, gender Male, age 6 weeks
Conditions: in vivo, po, 100 mg/kg, 3 h, tissue Blood, route gavage, dose level Low
Decide using Ht alone. Strictly below 40%: condition met. Equal to or above 40%: condition not met.

API: query returns whether the molecule falls strictly under 40% in Ht. Query: `Cc1nnc2n1-c1ccc(Cl)cc1C(c1ccccc1Cl)=NC2`
condition not met

API: query returns whether the molecule falls strictly under 40% in Ht. Query: `O=C(OC[C@H]1O[C@@H](OC(=O)c2cc(O)c(O)c(OC(=O)c3cc(O)c(O)c(O)c3)c2)[C@H](OC(=O)c2cc(O)c(O)c(OC(=O)c3cc(O)c(O)c(O)c3)c2)[C@@H](OC(=O)c2cc(O)c(O)c(OC(=O)c3cc(O)c(O)c(O)c3)c2)[C@@H]1OC(=O)c1cc(O)c(O)c(OC(=O)c2cc(O)c(O)c(O)c2)c1)c1cc(O)c(O)c(OC(=O)c2cc(O)c(O)c(O)c2)c1`
condition met

API: query returns whether the molecule falls strictly under 40% in Ht. Query: `CN/C(=N/CCSCc1nc[nH]c1C)NC#N`
condition met

====

Organism: Rattus norvegicus
Assay: Open TG-GATES - Regimen: Single
Assay type: toxicity, organism-based, Sprague-Dawley
Parameters: regimen Single, gender Male, age 6 weeks
Conditions: in vivo, po, 0 mg/kg, 6 h, tissue Blood, route gavage, dose level Control
measuredQuantity: RBC (x10_4/ul)
Your answer should be a plain number; it is taken to be in x10_4/ul.

Read off the recorded RBC for CC(C)NNC(=O)c1ccncc1 [IPRONIAZID]
618.8

Read off the recorded RBC for NC1=NC(=O)C(c2ccccc2)O1 (stereo unspecified) [PEMOLINE]
594.6

Read off the recorded RBC for Brc1ccccc1 [BROMOBENZENE]
608.2

Read off the recorded RBC for COC(=O)C1=C(C)NC(C)=C(C(=O)OC)C1c1ccccc1[N+](=O)[O-] [NIFEDIPINE]
641.2

Read off the recorded RBC for Nc1c2c(nc3ccccc13)CCCC2 [TACRINE]
632.2

Read off the recorded RBC for CN1C(=O)CCS(=O)(=O)C1c1ccc(Cl)cc1 (stereo unspecified) [CHLORMEZANONE]
622.8
